Assay: yeast display, Sf9 membrane polyspecificity reagent, FACS + sequencing; frameworks hold sequencing errors

{"primary.sequence": "QVQLVESGGGLVQAGGSLRLSCAASGSIFNYYAMGWYRQAPGKERELVAAISWNGGRTYYADSVKGRFTISRDNAKNTVYLQMNSLKPEDTAVYYCNAYPAGYVAHTYDYWGQGTQVTVSS", "polyreactivity (PSR sort gate)": "high polyreactivity"}
{"primary.sequence": "QVQLVESGGGLVQAGGSLRLSCAASGFIFVRYAMGWYRQAPGKERELVAAITKGGGRTYYADSVKGRFTISRDNAKNTVYLQMNSLKPEDTAVYYCATAGAHGRERDYWGQGTQVTVSS", "polyreactivity (PSR sort gate)": "high polyreactivity"}
{"primary.sequence": "QVQLVESAGGLVQAGGSLRLSCAASGSIFDAYAMGWYRQAPGKERELVAAIIARGGSTYYADSVKGRFTISRDNAKTTVYLQMISLKPEDTAVSYCNRLSRVRRYIYDYWGQGTQVTVSS", "polyreactivity (PSR sort gate)": "high polyreactivity"}
{"primary.sequence": "QVQLVESVGGLVQAGGSLRLSCAASGFTFHLYAMGWYRPAPGKERELDAAISQSGDSTYYADSVKGRFTISRDNAKNTVYLQMNSLKPEDTAVYYVNADNDGVVWSYPFDFDYWGQGTQVTVSS", "polyreactivity (PSR sort gate)": "low polyreactivity"}
{"primary.sequence": "QVQLVESGGGLVQAGVSLRLSCAASGSTFKQYAMGWYRQAPGKERELVAAIDRGGSTYYADSVKGRFTISRDNANNTVYLQMNSLKPEYTAVYYCAARFVQYRYAFDYWGQGTQVTVSS", "polyreactivity (PSR sort gate)": "low polyreactivity"}
{"primary.sequence": "QVQLVESGGGLVQAGGSLRLSCAASGRTFGTNTKGWSRQAPGKERELVAAISSRGGTTYYADSVKGRFTISRDNAKNTVYLQMYSLKPEDTAVYYCNRARSSSRYDYWGQGTQVTVSS", "polyreactivity (PSR sort gate)": "low polyreactivity"}
{"primary.sequence": "QVQLVESGGGLVQAGGSLRLSCAASGFTIRSYAMGWYRQAPGKERELVAGITWRSSSTYYADSVKGRFTISRDNAKNTVYLQMNSLKPEDTAVYYCAARAVYRFNYWGQGTQVTVSS", "polyreactivity (PSR sort gate)": "high polyreactivity"}
